B1: ESR2 (parent)
chain: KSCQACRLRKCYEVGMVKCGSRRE

Variants of: B1
Assay Name: protein stability index of a GFP-peptide fusion (GPS, HEK-293T) (PSI 1-6); higher = more stable;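 note: lentivirally expressed fusions sorted by FACS into six bins by GFP to DsRed ratio, PSI derived from sequencing read proportions per bin multiplied by bin number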
Condition Details: c terminus: a fixed tail appended
Entry flag: Met if protein stability index reaches 2; Not met if it does not.

The examples below pair each entry with its known result.
# check: protein stability index of K18L is greater than or equal to 2 Not met

# check: protein stability index of K1R is greater than or equal to 2 Met

# check: protein stability index of V14Q is greater than or equal to 2 Met

# check: protein stability index of A5T is greater than or equal to 2 Met

# check: protein stability index of G15K is greater than or equal to 2 Met

Further cases:
# check: protein stability index of L8M is greater than or equal to 2 Met

# check: protein stability index of E13W is greater than or equal to 2 Not met

# check: protein stability index of K1N is greater than or equal to 2 Not met

# check: protein stability index of L8K is greater than or equal to 2 Met

# check: protein stability index of C19R is greater than or equal to 2 Met

# check: protein stability index of R9H is greater than or equal to 2 Not met

# check: protein stability index of G15F is greater than or equal to 2 Met

# check: protein stability index of L8Q is greater than or equal to 2 Not met

# check: protein stability index of S21P is greater than or equal to 2 Met
